# measured_target: TSLP (as used in the human PBMC assay) (UniProt Q969D9 29-159)
# assay_method_text: cell-based or functional assay
*1 amine or outer side, *2 acyl side, *3 side chain or, on linkers, in order; H or OH if unused. Bridges are numbered along the chain shown (N, C = ends). Where no end group is shown, it is not given here. TATA = O=C(CC[*:1])N1CN(C(=O)CC[*:2])CN(C(=O)CC[*:3])C1
Please note: CCL17 % Inhibition @ 10 µM, 666 pM TSLP exactly at 10% is f. Only values below 10% get t.

{"binder": "ACTWLEDCWRGFCADS (linker 2-8-13 via TATA) [Example 63]", "assigned_class": "f"}
{"binder": "CQWLEDCWRGXC (not fully specified; Ac-CQWLEDCWRG[3-ClPhe]C; 3 Cys cyclised with TATA) [Example 32]", "assigned_class": "f"}
{"binder": "CQXLEDCWRGXC (not fully specified; Ac-CQ[Nal1]LEDCWRG[4-FPhe]C; 3 Cys cyclised with TATA) [Example 27]", "assigned_class": "f"}
{"binder": "CQWLEDCWRGXC (not fully specified; Ac-CQWLEDCWRG[3,4diClPhe]C; 3 Cys cyclised with TATA) [Example 11]", "assigned_class": "f"}
{"binder": "Ac-ACQWLEDCWRGFCPLD (linker 2-8-13 via TATA) [Example 53]", "assigned_class": "t"}
